- STUDY SYSTEM: T1, human serum albumin (human, UniProt P02768 25-609)
- T1 construct: also called HSA
- TEST PROTOCOL: SPR, single-concentration injection over an HSA surface

BINDER	binding result
B39-R28 (bispecific antibody, not shown: small tags and cut ends) QVQLVESGGGLVQAGGSLRLSCAASGLTFSRYVMGWFRQAPGKEREFVAAITWGGTPNYADSVKGRFTISRDNSKNTQYLQMNSLKPEDTAVYYCAAGLGWDSRYSQSYNYWGQGTQVTVSSGGGGSGGGGSGGGGSGGGGSGGGGSQVQLVESGGGLVQAGGSLRLSCVASGRTFIAYAMGWFRQAPGKEREFVAAITNFAGGTTYYADSVKGRFTISRDNAKTTVYLQMNSLKPEDTALYYCAADRSAQTMRQVRPVLPYWGQGTQVTVSS	binds
B39-M79 (bispecific antibody, not shown: small tags and cut ends) QVQLVESGGGLVQAGGSLRLSCAASGLTFSRYVMGWFRQAPGKEREFVAAITWGGTPNYADSVKGRFTISRDNSKNTQYLQMNSLKPEDTAVYYCAAGLGWDSRYSQSYNYWGQGTQVTVSSGGGGSGGGGSGGGGSGGGGSGGGGSQVKLEESGGGLVQAGGSLKLSCAASGSTFSSSSVGWYRQAPGQQRELVAAITSGGSTNTADSVKGRFTMSRDNAKNTVYLQMRDLKPEDTAVYYCNVAGRNWVPISRYSPGPYWGQGTQVTVSS	binds

Sourced from patent US20210253679A1
